Measured IC50, listed per entry.
SYSTEM NAME: MCL-1 (Homo sapiens, UniProt Q07820)
Sequence (Q07820 whole entry): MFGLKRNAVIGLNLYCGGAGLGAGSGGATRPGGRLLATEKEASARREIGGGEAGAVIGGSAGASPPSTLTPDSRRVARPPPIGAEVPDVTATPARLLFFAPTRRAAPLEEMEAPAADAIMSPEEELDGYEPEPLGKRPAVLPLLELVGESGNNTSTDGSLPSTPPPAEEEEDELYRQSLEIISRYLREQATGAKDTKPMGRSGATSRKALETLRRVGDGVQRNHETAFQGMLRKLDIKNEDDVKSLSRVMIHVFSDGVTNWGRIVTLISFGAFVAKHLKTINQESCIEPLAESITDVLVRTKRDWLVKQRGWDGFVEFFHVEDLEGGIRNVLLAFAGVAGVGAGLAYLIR
PROCEDURE SUMMARY: Protein-protein interaction assay MCL-1/Noxa BH3 peptide (MCL-1 assay), TR-FRET
Format: binding
CONDITION INFO: MBP-MCL-1 / Noxa BH3-derived peptide, median
The response must be a number in nM with no trailing unit.

Here is how some compounds turned out for IC50.
Cc1ccc2c(CCCOc3cccc4ccccc34)c(C(=O)O)n3c2c1-c1c(nn(C)c1C)COCCCC3 (single isomer, unassigned; enantiomer 2) [Example 077]	34.2
Cc1nn(C)c2c1-c1cccc3c(CCCOc4cccc5ccccc45)c(C(=O)O)n(c13)CC=CCN2Cc1ccccc1 (racemic)	1010
CCc1c2c(nn1C)COCCCCn1c(C(=O)O)c(CCCOc3cccc4ccccc34)c3cccc-2c31 (single isomer, unassigned; enantiomer 2) [Example 149]	66.6
Cc1nn(C)c2c1-c1cccc3c(CCCOc4cccc5ccccc45)c(C(=O)O)n(c13)CCN(c1ccccc1)C2 (racemic)	319
CCn1nc2c(c1C1CC1)-c1cccc3c(CCCOc4cccc5ccccc45)c(C(=O)O)n(c13)CCCCOC2 (single isomer, unassigned; enantiomer 1) [Example 082]	4.37
O=C(O)c1c(CCCOc2cccc3ccccc23)c2cccc3c2n1CCCCOCc1nn2c(c1-3)OCCC2 (single isomer, unassigned) [Example 248]	4.74

So, CN1CCCn2c(C(=O)O)c(CCCOc3cccc4ccccc34)c3cccc(c32)-c2c(CNCC(F)(F)F)nn(C)c2C1 (racemic) [Example 129] ? Its IC50 was 22.2

So, Cn1nc(CC(F)(F)F)c2c1COCCCCn1c(C(=O)O)c(CCCOc3cccc4ccccc34)c3cccc-2c31 (single isomer, unassigned) [Example 221] ? Its IC50 was 353

----------
Tested on: SUDHL10
PROCEDURE SUMMARY: Induction of cytotoxicity (CellTiter-Glo, 5 h), SUDHL10
CONDITION INFO: read-out: Cytotox SUDHL10 [M] (median); SUDHL10 cells, cytotoxicity induction, CellTiter-Glo, 5 h incubation, median
METRIC: IC50

Here is how some molecules turned out for IC50.
Cc1ccc2c(C(C)CCOc3cccc4cc(F)ccc34)c(C(=O)O)n3c2c1-c1c(nn(C)c1C)COCCCC3 (single isomer, unassigned) [Example 278]	> 3.3e-05 M
CN1CCCn2c(C(=O)O)c(CCCOc3cccc4ccccc34)c3cccc(c32)-c2c(CNCC(F)(F)F)nn(C)c2C1 (single isomer, unassigned; enantiomer 1) [Example 130]	> 3.3e-05 M
Cn1nc(COc2ccc(N3CCOCC3)cc2)c2c1COCC=CCn1c(C(=O)O)c(CCCOc3cccc4ccccc34)c3cccc-2c31 (single isomer, unassigned; enantiomer 2)	> 3.3e-05 M

Would you kindly look at the next entry?
So, Cc1nn(C)c2c1-c1cccc3c(CCCOc4cccc5cc(F)ccc45)c(C(=O)O)n(c13)CCCCOC2 (single isomer, unassigned; enantiomer 2) [Example 020] ? Its IC50 was > 3.3e-05 M

----------
SYSTEM NAME: MCL-1 (Homo sapiens, UniProt Q07820)
PROCEDURE SUMMARY: Protein-protein interaction assay MCL-1/Noxa BH3 peptide (MCL-1 assay), TR-FRET
Type: binding
CONDITION INFO: MBP-MCL-1 / Noxa BH3-derived peptide, median
Measured IC50, listed per entry.
The response must be a number in nM with no trailing unit.

CCc1c2c(nn1C)CN(C)CCCn1c(C(=O)O)c(CCCOc3cccc4ccccc34)c3cccc-2c31 (single isomer, unassigned; enantiomer 2) [Example 143]	30.8
CN(C)S(=O)(=O)N1CCN(c2ccc(OCc3nn(C)c4c3-c3cccc5c(CCCOc6cccc7ccccc67)c(C(=O)O)n(c35)CCCN(Cc3ccccc3)C4)cc2)CC1 (racemic)	117
Cc1cc(OCCCc2c(C(=O)O)n3c4c(cccc24)-c2c(COc4ccccc4)nn(C)c2CN(C)CCC3)cc(C)c1Cl (single isomer, unassigned) [Example 1-86]	278
Cn1nc(COc2ccc(N3CCN(C(=O)C4CC4)CC3)cc2)c2c1COCCCCn1c(C(=O)O)c(CCCOc3cccc4ccccc34)c3cccc-2c31 (racemic) [Example 1-21]	1.06

So, Cn1nc2c(c1OC(F)F)-c1cccc3c(CCCOc4cccc5ccccc45)c(C(=O)O)n(c13)CCCCOC2 (single isomer, unassigned) [Example 235] ? Its IC50 was 77.9
